- ASSAY_TARGET: human P2X3 receptor (Homo sapiens (Human), UniProt P56373)
- Sequence (P56373 whole entry): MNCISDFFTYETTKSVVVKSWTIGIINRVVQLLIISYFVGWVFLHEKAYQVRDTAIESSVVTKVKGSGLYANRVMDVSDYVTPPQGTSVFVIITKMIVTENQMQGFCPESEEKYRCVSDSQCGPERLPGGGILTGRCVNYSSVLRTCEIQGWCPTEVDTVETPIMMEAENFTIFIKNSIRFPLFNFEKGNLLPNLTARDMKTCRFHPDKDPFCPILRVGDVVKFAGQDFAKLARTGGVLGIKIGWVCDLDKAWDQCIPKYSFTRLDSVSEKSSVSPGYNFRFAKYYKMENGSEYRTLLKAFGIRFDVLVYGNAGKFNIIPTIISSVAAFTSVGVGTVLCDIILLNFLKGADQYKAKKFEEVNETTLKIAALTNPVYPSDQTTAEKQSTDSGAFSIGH
- ASSAY_PROTOCOL: Evaluation of human P2X3 receptor inhibitory activity (Test Example 1)
- MEASUREMENT_CONTEXT: C6BU-1 cell transfected with human P2X3 receptor gene, FLIPR 384
READOUT_NAME: IC50 (nM)
Value expressed in nM; do not type the unit.

{"COMPOUND": "Cc1cc(/N=c2\\[nH]c(=O)n(CC(C)(C)C(=O)O)c(=O)n2Cc2ccc(Cl)cc2)ccc1Oc1ccccn1 [Compound I-219]", "IC50, nM": 12}

// query IC50 value for entry COC(=O)C(C)(C)Cn1c(=O)[nH]/c(=N\c2ccc(Oc3ccccn3)cc2)n(Cc2ccc(Cl)cc2)c1=O [Compound I-149]
5

// query IC50 value for entry C[C@@H](Cn1c(=O)[nH]/c(=N\c2ccc(Oc3cccc(F)n3)cc2)n(Cc2ccc(C(F)F)cc2)c1=O)C(=O)O [Compound I-168]
12

###

- ASSAY_TARGET: human P2X3 receptor (Homo sapiens (Human))
- ASSAY_PROTOCOL: Evaluation of human P2X3 receptor inhibitory activity (Test Example 1)
- MEASUREMENT_CONTEXT: C6BU-1 cell transfected with human P2X3 receptor gene, FLIPR 384
READOUT_NAME: IC50
# do not omit the unit; it follows the number

Here is how some compounds turned out for IC50.
{"MOLECULE": "C[C@@H](C(=O)O)[C@H](C)n1c(=O)[nH]/c(=N\\c2ccc(Oc3ccnc(C#N)c3)cc2)n(Cc2ccc(Cl)cc2)c1=O", "READOUT_NAME": "IC50", "MEAS_VALUE": "8 nM"}
{"MOLECULE": "CC(=O)c1ccc(Oc2ccc(/N=c3\\[nH]c(=O)n(C[C@H](C)C(=O)O)c(=O)n3Cc3ccc(C)cc3)cc2)nc1", "READOUT_NAME": "IC50", "MEAS_VALUE": "5 nM"}

Could you share what IC50 was measured for C[C@@H](Cn1c(=O)[nH]/c(=N\c2ccc(Oc3cccc(F)n3)cc2)n(CC2CCC3(CC2)CC3)c1=O)C(=O)O , tested on human P2X3 receptor (Homo sapiens (Human))?
7 nM

###

- ASSAY_TARGET: human P2X3 receptor (Homo sapiens (Human))
- ASSAY_PROTOCOL: Evaluation of human P2X3 receptor inhibitory activity (Test Example 1)
- MEASUREMENT_CONTEXT: C6BU-1 cell transfected with human P2X3 receptor gene, FLIPR 384
pIC50: −log10 of the molar value.
Give label 1 when the value for pIC50 is at least 8. Give label 0 when it is less.

// known answers, use as guide
{"COMPOUND": "O=c1[nH]/c(=N\\c2ccc(Oc3cccc(F)n3)cc2)n(Cc2ccc(Cl)cc2)c(=O)n1CC1(CO)COC1", "CLASS_ASSIGNMENT": "label 1"}
{"COMPOUND": "COCc1cccc(Oc2ccc(/N=c3\\[nH]c(=O)n(C[C@H](C)C(=O)OC)c(=O)n3Cc3ccc(C)cc3)cc2)n1", "CLASS_ASSIGNMENT": "label 0"}
{"COMPOUND": "CCOC(=O)Cn1c(=O)[nH]/c(=N\\c2ccc(Oc3ccc(C#N)cn3)cc2)n(Cc2ccc(Cl)cc2)c1=O", "CLASS_ASSIGNMENT": "label 1"}
{"COMPOUND": "CCc1ccc(Oc2ccc(/N=c3\\[nH]c(=O)n(C[C@H](C)C(=O)OC)c(=O)n3Cc3ccc(C)cc3)cc2)nc1", "CLASS_ASSIGNMENT": "label 1"}
{"COMPOUND": "O=c1[nH]/c(=N\\c2ccc(Oc3ccccn3)cc2)n(Cc2ccc(Cl)cc2)c(=O)n1CCCOC1CCCCO1 (centres unmarked)", "CLASS_ASSIGNMENT": "label 1"}

Check if pIC50 >= 8 (inclusive). Item: COC(=O)[C@@H](C)Cn1c(=O)[nH]/c(=N\c2ccc(Oc3ncccc3C#N)cc2)n(Cc2ccc(Cl)cc2)c1=O
label 0

Check if pIC50 >= 8 (inclusive). Item: COC(=O)[C@@H](C)Cn1c(=O)[nH]/c(=N\c2ccc(Oc3ccc(C)cn3)cc2)n(Cc2ccc(C)cc2)c1=O
label 1

Check if pIC50 >= 8 (inclusive). Item: COC(=O)[C@H](C)[C@H](C)n1c(=O)[nH]/c(=N\c2ccc(Oc3cncc(F)c3)c(F)c2)n(Cc2ccc(Cl)cc2)c1=O
label 0

Check if pIC50 >= 8 (inclusive). Item: COC(=O)C(C)(C)Cn1c(=O)[nH]/c(=N\c2ccc(Oc3cc(C(F)(F)F)ccn3)cc2)n(Cc2ccc(Cl)cc2)c1=O
label 0

Check if pIC50 >= 8 (inclusive). Item: CCn1c(=O)[nH]/c(=N\c2ccc(Oc3ccc(C(=O)O)c(Cl)n3)cc2)n(Cc2ccc(Cl)cc2)c1=O
label 0

Check if pIC50 >= 8 (inclusive). Item: COC(=O)[C@@H](C)Cn1c(=O)[nH]/c(=N\c2ccc(Oc3cccc(Cl)n3)cc2)n(Cc2ccc(Cl)cc2)c1=O
label 0

Check if pIC50 >= 8 (inclusive). Item: O=C(O)CCn1c(=O)[nH]/c(=N\c2ccc(Oc3cccc(F)n3)cc2)n(Cc2ccc(CF)cc2)c1=O
label 0

Check if pIC50 >= 8 (inclusive). Item: CCOC(=O)[C@H]1C[C@@H](Oc2ccc(/N=c3\[nH]c(=O)n(CC)c(=O)n3Cc3ccc(Cl)cc3)cc2)C1
label 0

Check if pIC50 >= 8 (inclusive). Item: COC(=O)C(C)(C)Cn1c(=O)[nH]/c(=N\c2ccc(Oc3cnc(Cl)cn3)cc2)n(Cc2ccc(Cl)cc2)c1=O
label 1
